- study system: T1, human IL-17A/F heterodimer (human, UniProt Q16552 24-155; Q96PD4 31-163, limits assumed, biotinylated with Sulfo-NHS-LC-Biotin in the AlphaScreen assays only)
- T1 construct: also called hIL-17A/F
- T1 sequence (Q16552 24-155 limits assumed, chain 1 of 2): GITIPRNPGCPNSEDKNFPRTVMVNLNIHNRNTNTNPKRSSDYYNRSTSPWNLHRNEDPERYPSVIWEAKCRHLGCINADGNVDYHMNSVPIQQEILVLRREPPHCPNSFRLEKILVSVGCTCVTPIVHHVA
- T1 sequence (Q96PD4 31-163 limits assumed, chain 2 of 2): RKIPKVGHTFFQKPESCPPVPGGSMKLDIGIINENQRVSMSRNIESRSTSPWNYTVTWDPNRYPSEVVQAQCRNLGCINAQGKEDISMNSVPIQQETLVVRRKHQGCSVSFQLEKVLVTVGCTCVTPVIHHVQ
- experimental protocol: AlphaScreen competition, hIL-17A/F - IL-17RA-Fc
quantity measured: pIC50
Keep in mind that pIC50 stands for -log10 of concentration in molar terms.

1. 01D02 (VHH, Class 1 Nanobody (anti-IL-17A); not shown: c-myc, His6 tag) VHH: EVQLVESGGGLVQAGGSLRLSCAASGLSFSSYALGWFRQAPGKERDFVAAINWSGDNTHYADSVKGRFTISRDNAKNTVSLQMNSLKPEDTAVYYCAAQLGYESGYSLTYDYDYWGQGTQVTVSS    7.14
2. 04F09 (VHH, Class 2 Nanobody (anti-IL-17A and IL-17A/F); not shown: c-myc, His6 tag) VHH: EVQLVESGGGLVQPGGSLRLSCAASGRTFSTHAMGWFRQAPGKERDFVAAIRWSDGSSFYADSVKGRFTISRDNAKNAVYLQSNSLKSEDTAVYVCYADVEGPTALHKYWGRGTQVTVSS    8.40
3. 01D06 (VHH, Class 2 Nanobody (anti-IL-17A and IL-17A/F); not shown: c-myc, His6 tag) VHH: EVQLVESGGGLVQAGGSLRLSCAADGRTFSTYGMTWFRQVPGKEREFVAHIPRSTYSPYYANSVKGRFTIARDDAKSTVYLQMNSLKPEDTAVYYCAVFTGGTYYVPTAYDYWGQGTQVTVSS    9.40
4. 13B03 (VHH, Class 4 Nanobody (cross-reactive: anti-IL-17A, IL-17F and IL-17A/F); also called IL17MS13B03; not shown: c-myc, His6 tag) VHH: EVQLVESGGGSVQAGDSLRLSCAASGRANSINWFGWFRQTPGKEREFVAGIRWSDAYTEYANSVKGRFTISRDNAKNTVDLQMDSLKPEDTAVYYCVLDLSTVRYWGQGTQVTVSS    10.10
5. 04B10 (VHH, Class 2 Nanobody (anti-IL-17A and IL-17A/F); not shown: c-myc, His6 tag) VHH: EVQLVESGGGLVQAGGSQSLSCVASGTIVNINVMGWYRQAPGKQRELVALITSGGGTTYGDSVKGRFTISIDNAKNTVILQMNSLEAEDTAVYYCAAEIGYYSGGTYFSSEAHWGQGTQVTVSS    10.02
6. 04A02 (VHH, Class 2 Nanobody (anti-IL-17A and IL-17A/F); not shown: c-myc, His6 tag) VHH: EVQLVESGGGLVQPGGSLRLSCAASRNINIINYMAWYRQAPGNQRELVAAMTSDATTEYADSVKGRFTISRDIPENTVYLQMNSLKPEDTAVYYCNAKGIWDYLGRRDFGDYWGQGTQVTVSS    8.71

Next:
QUERY: Any idea what pIC50 was measured for 09G10 (VHH, Class 2 Nanobody (anti-IL-17A and IL-17A/F); not shown: c-myc, His6 tag) VHH: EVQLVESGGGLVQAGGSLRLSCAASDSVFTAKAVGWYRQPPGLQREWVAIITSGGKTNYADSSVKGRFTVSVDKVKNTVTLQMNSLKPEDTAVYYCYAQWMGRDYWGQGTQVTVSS ?
RESULT: 10.00
